The following compounds are shown together with reported MIC values.
Tested on: Pseudomonas aeruginosa
Assay: Inhibition of LptD in Pseudomonas aeruginosa ATCC 27853 assessed as microbial growth inhibition by microbroth dilution method
property-label: MIC

* CC(C)C[C@@H]1NC(=O)[C@H](Cc2c[nH]c3ccccc23)NC(=O)[C@H]([C@@H](C)O)NC(=O)[C@@H]2CCCN2C(=O)[C@H]2CCCN2C(=O)[C@H](CCCCN)NC(=O)[C@H](C)NC(=O)[C@H](CCN)N(C)C(=O)[C@H](CCCN)NC(=O)[C@H](Cc2c[nH]c3ccccc23)NC(=O)[C@H](CCCNC(=N)N)NC(=O)[C@@H](CCCCN)NC(=O)[C@H](CCCN)NC(=O)[C@H](CCN)NC1=O | 1 µg/mL
* CC(C)C[C@@H]1NC(=O)[C@H](Cc2c[nH]c3ccccc23)NC(=O)[C@H]([C@@H](C)O)N(C)C(=O)[C@@H]2CCCN2C(=O)[C@H]2CCCN2C(=O)[C@H](CCCCN)NC(=O)[C@H](C)NC(=O)[C@H](CCN)NC(=O)[C@H](CCCN)NC(=O)[C@H](Cc2c[nH]c3ccccc23)NC(=O)[C@H](CCCNC(=N)N)NC(=O)[C@@H](CCCCN)NC(=O)[C@H](CCCN)NC(=O)[C@H](CCN)NC1=O | 0.19 µg/mL
* CC(C)C[C@@H]1NC(=O)[C@H](Cc2c[nH]c3ccccc23)NC(=O)[C@H]([C@@H](C)O)NC(=O)[C@@H]2CCCN2C(=O)[C@H]2CCCN2C(=O)[C@H](CCCCN)NC(=O)[C@H](C)NC(=O)[C@H](CCN)NC(=O)[C@H](CCCN)NC(=O)[C@H](Cc2c[nH]c3ccccc23)N(C)C(=O)[C@H](CCCNC(=N)N)NC(=O)[C@@H](CCCCN)NC(=O)[C@H](CCCN)NC(=O)[C@H](CCN)NC1=O | 0.023 µg/mL

* * *

Recorded MIC for the following molecules
System: Pseudomonas aeruginosa
Test: Inhibition of LptD in Pseudomonas aeruginosa ATCC 27853 assessed as microbial growth inhibition by microbroth dilution method
property-label: MIC (µg/mL)

* CC(C)C[C@@H]1NC(=O)[C@H](Cc2c[nH]c3ccccc23)NC(=O)[C@H]([C@@H](C)O)NC(=O)[C@@H]2CCCN2C(=O)[C@H]2CCCN2C(=O)[C@H](CCCCN)NC(=O)[C@H](C)NC(=O)[C@H](CCN)NC(=O)[C@H](CCCN)NC(=O)[C@H](Cc2c[nH]c3ccccc23)NC(=O)[C@H](CCCNC(=N)N)NC(=O)[C@@H](CCCCN)NC(=O)[C@H](CCCN)NC(=O)[C@H](CCN)N(C)C1=O | 0.005
* CC(C)C[C@@H]1NC(=O)[C@H](Cc2c[nH]c3ccccc23)NC(=O)[C@H]([C@@H](C)O)NC(=O)[C@@H]2CCCN2C(=O)[C@H]2CCCN2C(=O)[C@H](CCCCN)NC(=O)[C@H](C)NC(=O)[C@H](CCN)NC(=O)[C@H](CCCN)NC(=O)[C@H](Cc2c[nH]c3ccccc23)NC(=O)[C@H](CCCNC(=N)N)N(C)C(=O)[C@@H](CCCCN)NC(=O)[C@H](CCCN)NC(=O)[C@H](CCN)NC1=O | 0.38

* * *

Target: LPS-assembly protein LptD (Pseudomonas aeruginosa (strain ATCC 15692 / DSM 22644 / CIP 104116 /JCM 14847 / LMG 12228 / 1C / PRS 101 / PAO1)) (UniProt Q9I5U2)
Sequence (Q9I5U2 whole entry): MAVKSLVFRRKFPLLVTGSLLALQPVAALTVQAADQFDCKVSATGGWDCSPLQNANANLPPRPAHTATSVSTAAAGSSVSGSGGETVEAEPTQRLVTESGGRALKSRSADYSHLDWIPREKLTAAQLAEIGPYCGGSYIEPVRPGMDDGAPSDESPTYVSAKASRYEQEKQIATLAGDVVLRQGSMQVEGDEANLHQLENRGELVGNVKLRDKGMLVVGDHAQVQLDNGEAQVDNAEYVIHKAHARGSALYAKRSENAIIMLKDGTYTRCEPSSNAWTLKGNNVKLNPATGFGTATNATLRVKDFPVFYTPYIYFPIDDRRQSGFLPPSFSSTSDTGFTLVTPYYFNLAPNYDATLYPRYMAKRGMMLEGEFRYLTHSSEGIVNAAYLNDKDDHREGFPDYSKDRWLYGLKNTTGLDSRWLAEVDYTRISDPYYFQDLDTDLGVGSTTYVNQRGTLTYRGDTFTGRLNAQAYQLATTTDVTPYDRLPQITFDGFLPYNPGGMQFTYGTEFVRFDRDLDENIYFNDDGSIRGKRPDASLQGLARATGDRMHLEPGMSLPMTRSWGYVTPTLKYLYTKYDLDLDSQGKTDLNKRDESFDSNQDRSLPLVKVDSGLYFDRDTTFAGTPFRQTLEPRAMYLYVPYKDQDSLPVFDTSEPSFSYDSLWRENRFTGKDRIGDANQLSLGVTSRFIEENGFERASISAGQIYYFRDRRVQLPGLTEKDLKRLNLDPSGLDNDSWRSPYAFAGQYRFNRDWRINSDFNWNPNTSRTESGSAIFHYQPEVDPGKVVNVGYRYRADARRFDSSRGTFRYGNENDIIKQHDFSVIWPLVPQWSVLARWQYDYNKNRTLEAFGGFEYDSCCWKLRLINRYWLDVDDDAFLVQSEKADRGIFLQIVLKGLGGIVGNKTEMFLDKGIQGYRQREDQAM
Assay: Inhibition of LptD in Pseudomonas aeruginosa PAO1 assessed as microbial growth inhibition by microbroth dilution method
property-label: MIC

* CC(C)C[C@@H]1NC(=O)[C@H](Cc2c[nH]c3ccccc23)NC(=O)[C@H]([C@@H](C)O)NC(=O)[C@@H]2CCCN2C(=O)[C@H]2CCCN2C(=O)[C@H](CCCCN)NC(=O)[C@H](C)N(C)C(=O)[C@H](CCN)NC(=O)[C@H](CCCN)NC(=O)[C@H](Cc2c[nH]c3ccccc23)NC(=O)[C@H](CCCNC(=N)N)NC(=O)[C@@H](CCCCN)NC(=O)[C@H](CCCN)NC(=O)[C@H](CCN)NC1=O | > 64 µg/mL
* CC(C)C[C@@H]1NC(=O)[C@H](Cc2c[nH]c3ccccc23)N(C)C(=O)[C@H]([C@@H](C)O)NC(=O)[C@@H]2CCCN2C(=O)[C@H]2CCCN2C(=O)[C@H](CCCCN)NC(=O)[C@H](C)NC(=O)[C@H](CCN)NC(=O)[C@H](CCCN)NC(=O)[C@H](Cc2c[nH]c3ccccc23)NC(=O)[C@H](CCCNC(=N)N)NC(=O)[C@@H](CCCCN)NC(=O)[C@H](CCCN)NC(=O)[C@H](CCN)NC1=O | > 64 µg/mL
* CC(C)C[C@H]1C(=O)N[C@@H](CCN)C(=O)N[C@@H](CCCN)C(=O)N[C@H](CCCCN)C(=O)N[C@@H](CCCNC(=N)N)C(=O)N[C@@H](Cc2c[nH]c3ccccc23)C(=O)N[C@@H](CCCN)C(=O)N[C@@H](CCN)C(=O)N[C@@H](C)C(=O)N[C@@H](CCCCN)C(=O)N2CCC[C@@H]2C(=O)N2CCC[C@H]2C(=O)N[C@@H]([C@@H](C)O)C(=O)N[C@@H](Cc2c[nH]c3ccccc23)C(=O)N1C | > 64 µg/mL
